Each item that follows carries a reported Population Tubulin-Different-Phenotype (%).
Test system: HEK-293T
Test: Multiplex assay against HEK293T
Assay type: toxicity, cell-based
Conditions: human, 12 h, 10 µM, compound concentration 10 uM, replicate 1
Please state the value followed by its unit.

As a guide, the following entries are already answered.
N[C@](CC1c2ccccc2Oc2ccccc21)(C(=O)O)[C@H]1C[C@@H]1C(=O)O = 23%
Cc1nn(C)c2nc(NNC(=O)Nc3cc(Cl)nc(Cl)c3)cc(C(C)C)c12 = 80%
CN(C)C(=O)Cn1cc(-c2ccc(-c3nnc4ccccn34)cc2)cn1 = 42%
C=CCN1C[C@H](C(=O)N(CCCN(C)C)C(=O)NCC)C[C@@H]2c3cccc4[nH]cc(c34)C[C@H]21 = 54%
COC(c1ccccc1)(c1ccccc1)[C@H](Oc1nc(C)cc(C)n1)C(=O)O = 23%
Nc1nc(CC(=O)Nc2ccc(CCNC[C@H](O)c3ccccc3)cc2)cs1 = 41%

Data request: Which Population Tubulin-Different-Phenotype (%) reading was recorded for the compound COc1ccc2c(c1OCc1ccccc1)C[C@@H](C(=O)O)N(C(=O)C(c1ccccc1)c1ccccc1)C2 ?
Data returned: 35%

Data request: Which Population Tubulin-Different-Phenotype (%) reading was recorded for the compound CCn1c(-c2nc3cc(C(=O)N4CCCC(N)C4)ccc3n2C)cc2ccccc21.Cl (stereo not drawn) ?
Data returned: 75%

###

System: HEK-293T
Assay: Multiplex assay against HEK293T
Type: toxicity, cell-based
Details: human, 48 h, 10 µM, compound concentration 10 uM, replicate 1
Population Tubulin-Different-Phenotype (%) strictly under 20% means rule met; at 20% or over means rule not met.

# count of solved cases: 4
COCCCN1CCC(NC(=O)c2cc(Cl)c(N)c3c2OCC3)CC1 [PRUCALOPRIDE] = rule met
Cc1c(Cc2ccc3ccccc3n2)c2cc(F)ccc2n1CC(=O)O = rule met
C[C@H](NC(=O)CNC(=O)c1cccc(Cl)c1)c1ccccc1 = rule met
Nc1nc(-c2ccco2)c2cnn(Cc3ccccc3F)c2n1 = rule met

Now let's try a different one.
Data request: I'd appreciate it if you could check whether C=CCN1C[C@H](C(=O)N(CCCN(C)C)C(=O)NCC)C[C@@H]2c3cccc4[nH]cc(c34)C[C@H]21 has Population Tubulin-Different-Phenotype (%) smaller than 20%.
Data returned: rule not met

###

System: HEK-293T
Test: Multiplex assay against HEK293T
Format: toxicity, cell-based
Conditions: human, 48 h, 1 µM, compound concentration 1 uM, replicate 2
Each item that follows carries a reported Total Cell Count.
Respond with the number and no other words.

CN(C)C/C=C/C(=O)Nc1ccc(C(=O)N2CCCC(Nc3ncc(Cl)c(-c4c[nH]c5ccccc45)n3)C2)cc1 (stereo not given) = 184
CN1CCN(c2ccc(Nc3c4ccccc4nc4ccccc34)cc2)CC1.Cl.Cl.O = 411
Cc1ccc(OCC(O)C(C)NC(C)C)c2c1CCC2.Cl (stereo not given) = 660
COc1cc2nc(N3CCN(C(=O)c4ccco4)CC3)nc(N)c2cc1OC.Cl [PRAZOSIN HYDROCHLORIDE] = 636

Now turn to the next compound.
Data request: Which Total Cell Count reading was recorded for the compound Cc1cc(NC(=O)NCCN2CCC(O)(Cc3ccccc3)CC2)c2ccccc2n1 ?
Data returned: 552

###

System: U2OS
Experiment: Multiplex assay against U2OS
Type: toxicity, cell-based
Conditions: human, 48 h, 10 µM, compound concentration 10 uM, replicate 1
Each item that follows carries a reported Population Pyknosed Nuclei (%).

Data request: Any idea what Population Pyknosed Nuclei (%) came out for Cc1ccc(OCC(O)C(C)NC(C)C)c2c1CCC2.Cl (stereo not given) on U2OS?
Data returned: 13%

Data request: Any idea what Population Pyknosed Nuclei (%) came out for Cn1cc(C(=O)OCC2CCN(CCNS(C)(=O)=O)CC2)c2ccccc21 on U2OS?
Data returned: 10%

Data request: Any idea what Population Pyknosed Nuclei (%) came out for Cc1cc(O)c(-c2ccc([C@@H](C)CN(C)C)cc2)c2c1[nH]c(=O)c1sccc12 on U2OS?
Data returned: 31%

Data request: Any idea what Population Pyknosed Nuclei (%) came out for COCCCN1CCC(NC(=O)c2cc(Cl)c(N)c3c2OCC3)CC1 [PRUCALOPRIDE] on U2OS?
Data returned: 12%
